Catalogue of pKd readings, one per entry.
target: EBOV GP[change] (Ebola virus) (UniProt Q05320)
Sequence (Q05320 33-501, chain 1 of 2): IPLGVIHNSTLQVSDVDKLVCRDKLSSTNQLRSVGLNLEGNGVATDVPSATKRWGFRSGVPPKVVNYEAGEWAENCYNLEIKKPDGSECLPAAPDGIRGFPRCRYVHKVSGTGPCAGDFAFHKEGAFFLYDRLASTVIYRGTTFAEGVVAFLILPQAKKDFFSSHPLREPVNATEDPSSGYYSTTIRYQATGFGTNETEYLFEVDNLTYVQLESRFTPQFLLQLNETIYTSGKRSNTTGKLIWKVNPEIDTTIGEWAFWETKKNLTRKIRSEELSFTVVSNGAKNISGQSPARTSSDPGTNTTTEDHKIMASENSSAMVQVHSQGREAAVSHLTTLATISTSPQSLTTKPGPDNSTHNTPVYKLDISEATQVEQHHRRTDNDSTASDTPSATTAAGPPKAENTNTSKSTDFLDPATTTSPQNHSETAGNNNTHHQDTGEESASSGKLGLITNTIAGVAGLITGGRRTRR
Sequence (Q05320 502-650, chain 2 of 2): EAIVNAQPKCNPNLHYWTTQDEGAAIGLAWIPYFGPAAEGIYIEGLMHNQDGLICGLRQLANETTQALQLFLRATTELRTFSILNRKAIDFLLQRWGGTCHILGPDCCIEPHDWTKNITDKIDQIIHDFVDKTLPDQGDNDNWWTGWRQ
pKd: −log10 of the molar value.
Measured metric: pKd

[[record]]
binder = "PE-87 G106A (antibody, V domains shown) VH: QVQLVQSGVTLVQPGGSLRVSCAASGFTFSSYAMSWVRQAPGKGLEWVSAISGLGGSTYYADSVKGRFTISRDNSKNTLYLQMNSLRAEDTAVYYCAKDHRVWAAAYHFDYWGQGALVTVSS VL: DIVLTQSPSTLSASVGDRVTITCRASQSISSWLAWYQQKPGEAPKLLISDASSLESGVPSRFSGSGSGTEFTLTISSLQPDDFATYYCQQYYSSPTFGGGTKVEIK"
measured_metric = "pKd"
quantitative_result = 10.52

[[record]]
binder = "PE-87 H108A (antibody, V domains shown) VH: QVQLVQSGVTLVQPGGSLRVSCAASGFTFSSYAMSWVRQAPGKGLEWVSAISGLGGSTYYADSVKGRFTISRDNSKNTLYLQMNSLRAEDTAVYYCAKDHRVWAAGYAFDYWGQGALVTVSS VL: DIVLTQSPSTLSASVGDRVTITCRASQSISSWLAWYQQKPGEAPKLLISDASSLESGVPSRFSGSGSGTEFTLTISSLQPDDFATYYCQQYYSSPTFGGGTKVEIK"
measured_metric = "pKd"
quantitative_result = 7.74

[[record]]
binder = "PE-87 Y107A (antibody, V domains shown) VH: QVQLVQSGVTLVQPGGSLRVSCAASGFTFSSYAMSWVRQAPGKGLEWVSAISGLGGSTYYADSVKGRFTISRDNSKNTLYLQMNSLRAEDTAVYYCAKDHRVWAAGAHFDYWGQGALVTVSS VL: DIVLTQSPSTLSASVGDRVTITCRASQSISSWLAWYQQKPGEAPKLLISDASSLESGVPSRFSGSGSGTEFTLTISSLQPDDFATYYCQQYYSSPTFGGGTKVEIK"
measured_metric = "pKd"
quantitative_result = 7.52


Numbers sourced from patent US20180244758A1.
